Every entry's value here was drawn from patent US20250333515A1.

# EC50 values compiled below
target_of_assay: biotinylated recombinant human CLL-1 extracellular domain protein, isoform with glutamine at amino acid position 244 (human) (UniProt Q5QGZ9)
Sequence (Q5QGZ9 65-265): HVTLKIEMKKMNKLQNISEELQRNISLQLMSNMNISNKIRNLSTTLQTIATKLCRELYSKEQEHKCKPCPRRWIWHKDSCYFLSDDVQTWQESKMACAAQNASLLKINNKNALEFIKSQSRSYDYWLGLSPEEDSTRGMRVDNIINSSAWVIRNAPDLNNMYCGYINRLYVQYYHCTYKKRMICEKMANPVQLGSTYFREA
assay_name: EC50 table, CLL-1 Q244; reciprocals of the ELISA bars of FIG. 8B
Kindly write the number and append the unit.

binder	reported_measurement
Anti-CLL-1 Binder Clone 95 (VHH) VHH: QVQLVQSGGGLVQPGGSLRLSCAASAFDFDDSSMDWVRQAPGKALEWIGSISYFGSTYYNPSLKSRVTISRDNSKNTLYLQMNTLRAEDTATYYCTRSALYGDAAFDVWAQGTTVTVS	5.3 nM
Anti-CLL-1 Binder Clone 98 (VHH) VHH: QVQLVQSGGGLVQPGGSLRLSCAASDFYFDDYEMSWVRQAPGQRLEWVSLISSDGTTYYADSVKGRFTISRDNSKNTLYLQMNTLRAEDTALYYCVRTTDSWELDLWGRGTLVTVSS	11 nM
Anti-CLL-1 Binder Clone 101 (VHH) VHH: QVQLVQSGGGLVQPGGSLRLSCAASDFDFADDSMDWVRQAPGKALEWIGSIFYSGTTYYNPSLKSRVTISRDNSKNTLYLQMNTLRAEDTAVYYCTRSALYGDAAFDVWAQGTMVTVSS	4.8 nM

Continue with the next binder.
Complete the entry with EC50 for Anti-CLL-1 Binder Clone 96 (VHH) VHH: QVQLVQSGGGLVQPGGSLRLSCAASYFDFSYYEMSWVRQAPGKGLEWVSLMSGNGGSTYYADSVKGRFTISRDNSKNTLYLQMNTLRAEDTATYYCVAHSSTWFSWGQGTLVTVSS
6.4 nM
